Test system: ECU
Assay: qHTS profiling for inhibitors of Plasmodium falciparum proliferation (AID 504749); also: nearly all actives have a fitted effect of over 60% in size
Details: P. falciparum in erythrocytes, SYBR Green DNA, 72 h; series mostly up to 28.7 µM
Records with an inconclusive call do not appear. Activity calls are given as the source filed them. Calls follow the shape of the dose curve; as a rule, active = well fitted inhibition curve with a large enough effect; inconclusive = small, poorly fitted or top-dose-only effect; inactive = flat fitted curve, though single readings scatter.
Assign a class; possible classes are active, inactive

Recorded results for 6 compounds are shown here.
COMPOUND | LABEL_VALUE
O=C(O)CN1C(=O)c2cccc3cccc(c23)C1=O | inactive
Nc1nc2c(ncn2CCC(CO)CO)c(=O)[nH]1 | inactive
CC1=C(CC(=O)O)c2cc(F)ccc2/C1=C\c1ccc(S(C)=O)cc1 (configuration not stated) | inactive
COc1ccc2[nH]c(S(=O)Cc3ncc(C)c(OC)c3C)nc2n1 (configuration not stated) | active
COc1ccc(S(=O)(=O)Nc2nnc(CC(C)C)s2)cc1 | inactive
O=c1cc[nH]c(=S)[nH]1 | inactive

From here, focus on the item given below.
What is the recorded call for this compound in the test? [O-][n+]1cccc(CO)c1
inactive

----------
Test system: CP269
Assay: qHTS profiling for inhibitors of Plasmodium falciparum proliferation (AID 504749); also: nearly all actives have a fitted effect of over 60% in size
Settings: P. falciparum in erythrocytes, SYBR Green DNA, 72 h; series mostly up to 28.7 µM
Records with an inconclusive call do not appear. Activity calls are given as the source filed them. Calls come from the whole dose curve; as a rule, active = well fitted inhibition curve with a large enough effect; inconclusive = small, poorly fitted or top-dose-only effect; inactive = flat fitted curve, though single readings scatter.
Choose the fitting class; nothing outside YES for active, NO for inactive is accepted.

MOLECULE | LABEL_VALUE
Nc1nc2c(ncn2CCC(CO)CO)c(=O)[nH]1 | NO
CC(=O)c1ccc2c(c1)N(CCCN(C)C)c1ccccc1S2 | NO
NC(=O)NC(=O)Cc1ccccc1 | NO

For CC[C@@]1(c2ccccc2)NC(=O)N(C)C1=O , what call appears in the results of this test?
NO

State the result this test recorded for CCCOC(=O)c1ccccc1 .
NO

Would you mind telling me which call this test gave COC(=O)C1=C(C)NC(C)=C(C(=O)OC)C1c1ccccc1[N+](=O)[O-] ?
NO

Which result was noted for this molecule in the test: CC(=O)NC(Cc1ccccc1)C(=O)O (centres undefined)
NO

For this molecule, state the assay outcome: Cc1cccc(Nc2cc(Cl)nc(SCC(=O)O)n2)c1C
NO

Tell me the recorded outcome of this test for O=c1cc(CO)occ1O .
NO

Hi, sorry to bother you, what did the test record for COc1ccc2c(c1)C(=O)N(CCc1ccc(S(=O)(=O)NC(=O)NC3CCCCC3)cc1)C(=O)C2(C)C ?
NO

Could you check what this test reported for COc1cc2[nH]c(=O)[nH]c(=O)c2cc1OC ?
NO

Please share the test call associated with CC(O)COc1ccccc1 (centres undefined) .
NO

----------
Test system: KB-3-1
Experiment: Cytotoxic Profiling of Annotated Libraries Using Quantitative High-Throughput Screening (AID 1296008); also: % is scaled to controls: 0 for no effect and ±100 for the full control effect; nearly all actives have a fitted effect of over 60% in size
Conditions: Five cell lines viability, CellTiter-Glo ATP luminescence, 48-72 h; active compounds read low
Description: Cell-based phenotypic screening is a commonly used approach to discover biological pathways, novel drug targets, chemical probes and high-quality hit-to-lead molecules. […] A pintool (Kalypsys) was used to transfer 23 nL of compound solution to the 1536-well assay plates. […] Plates were left at room temperature for 10 min before imaging the ATP-coupled luminescence using a ViewLux microplate imager (PerkinElmer, Waltham, MA).
Results filed as inconclusive are left out.
Listing: max response of selected molecules
Entry rule: numbers only, all in %.

Given the molecule COc1ccc2cc1Oc1ccc(cc1)C[C@H]1c3c(cc4c(c3Oc3cc5c(cc3OC)CCN(C)[C@@H]5C2)OCO4)CCN1C , write its reported max response.
0.814

Indicate its recorded max response; the molecule in question is CS(=O)(=O)c1ccc([C@@H](O)[C@@H](CF)NC(=O)C(Cl)Cl)cc1
-19.8

Indicate the recorded max response value for this molecule: CC(CN(C)C)CN1c2ccccc2CCc2ccccc21 (stereo not given)
4.48

Please indicate max response recorded for CC1(C)S[C@@H]2[C@H](NC(=O)Cc3ccccc3)C(=O)N2[C@H]1C(=O)O (tested in a mixture with another compound)
9.18

Using the record for CNCCC(Oc1ccc(C(F)(F)F)cc1)c1ccccc1 (stereo not given) , state its measured max response.
2.04
